- assayName: Determination of antidepressants and traxoprodil in brains by HPLC
- cond: Albino Swiss, mouse, brain, intraperitoneal, Antidepressants concentration in brain, imipramine 15 mg/kg + traxoprodil 10 mg/kg i.p., 60 min before decapitation; mean ± SEM, n=10
Structures can show the parent of a compound that is named as a salt.
experimentalReadout: concentration at 60 min (ng/g)

> print(dat)
                                   compound  reportedvalue
1  CN(C)CCCN1c2ccccc2CCc2ccccc21 [imipramine, imipramine hydrochloride]           3210

* * *

- assayName: Determination of antidepressants and traxoprodil in brains by HPLC
- cond: Albino Swiss, mouse, brain, intraperitoneal, Traxoprodil concentration in brain, traxoprodil 10 mg/kg + escitalopram 2 mg/kg ip, 60 min before decapitation; mean ± SEM
experimentalReadout: concentration at 60 min (ng/g)

> print(dat)
                                  cpdsmiles      experimentalreadout  endpointunit  reportedvalue
1  C[C@@H]([C@@H](O)c1ccc(O)cc1)N1CCC(O)(c2ccccc2)CC1  concentration at 60 min          ng/g            249

* * *

- assayName: Determination of antidepressants and traxoprodil in brains by HPLC
- cond: Albino Swiss, mouse, brain, intraperitoneal, Traxoprodil concentration in brain, traxoprodil 10 mg/kg + fluoxetine 5 mg/kg ip, 60 min before decapitation; mean ± SEM
experimentalReadout: concentration at 60 min (ng/g)

> print(dat)
                                  cpdsmiles      experimentalreadout  reportedvalue
1  C[C@@H]([C@@H](O)c1ccc(O)cc1)N1CCC(O)(c2ccccc2)CC1  concentration at 60 min            151

* * *

- assayName: Determination of antidepressants and traxoprodil in brains by HPLC
- cond: Albino Swiss, mouse, brain, intraperitoneal, Traxoprodil concentration in brain, traxoprodil 10 mg/kg + imipramine 15 mg/kg ip, 60 min before decapitation; mean ± SEM
experimentalReadout: concentration at 60 min (ng/g)

> print(dat)
                                  cpdsmiles  endpointunit  reportedvalue
1  C[C@@H]([C@@H](O)c1ccc(O)cc1)N1CCC(O)(c2ccccc2)CC1          ng/g            119

* * *

- assayName: Determination of antidepressants and traxoprodil in brains by HPLC
- cond: Albino Swiss, mouse, brain, intraperitoneal, Antidepressants concentration in brain, escitalopram 2 mg/kg + traxoprodil 10 mg/kg i.p., 60 min before decapitation; mean ± SEM, n=10
Structures can show the parent of a compound that is named as a salt.
experimentalReadout: concentration at 60 min (ng/g)

> print(dat)
                                   compound      experimentalreadout  reportedvalue
1  CN(C)CCC[C@@]1(c2ccc(F)cc2)OCc2cc(C#N)ccc21 [escitalopram, escitalopram oxalate]  concentration at 60 min            361

* * *

- assayName: Determination of antidepressants and traxoprodil in brains by HPLC
- cond: Albino Swiss, mouse, brain, intraperitoneal, 15 mg/kg, Antidepressants concentration in brain, imipramine 15 mg/kg + saline i.p., 60 min before decapitation; mean ± SEM, n=10
Where a name gives a salt, the structure may show the parent alone.
experimentalReadout: concentration at 60 min (ng/g)

> print(dat)
                                   compound      experimentalreadout  reportedvalue
1  CN(C)CCCN1c2ccccc2CCc2ccccc21 [imipramine, imipramine hydrochloride]  concentration at 60 min           2060
